The reported numbers originate from patent US20210246204A1.

Tested On: human Siglec-7 on primary human monocyte-derived dendritic cells (human, UniProt Q9Y286 19-467)
Sequence (Q9Y286 19-467): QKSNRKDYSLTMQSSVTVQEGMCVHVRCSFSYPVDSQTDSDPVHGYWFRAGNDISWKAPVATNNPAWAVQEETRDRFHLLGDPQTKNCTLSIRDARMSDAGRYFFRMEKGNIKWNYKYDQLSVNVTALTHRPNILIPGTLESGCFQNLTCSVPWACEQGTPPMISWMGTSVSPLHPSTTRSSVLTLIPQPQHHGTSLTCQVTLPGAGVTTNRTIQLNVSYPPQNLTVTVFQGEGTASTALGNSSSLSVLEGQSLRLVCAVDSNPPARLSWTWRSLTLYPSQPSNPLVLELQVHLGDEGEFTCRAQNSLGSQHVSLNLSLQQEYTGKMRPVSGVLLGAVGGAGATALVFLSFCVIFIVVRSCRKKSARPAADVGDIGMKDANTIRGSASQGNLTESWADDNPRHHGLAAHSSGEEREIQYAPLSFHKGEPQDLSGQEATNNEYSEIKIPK
Procedure Details: cell-based or functional assay
Receptor downregulation, (EC50) (pM) overview
Expressed in pM, but write only the number.

Please review the following examples before continuing.
Binder: S7AB-H8.36 (antibody, V domains shown) VH: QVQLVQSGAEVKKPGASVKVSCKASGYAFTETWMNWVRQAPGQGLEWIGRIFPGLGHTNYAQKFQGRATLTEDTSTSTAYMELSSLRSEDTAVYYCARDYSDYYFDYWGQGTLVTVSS VL: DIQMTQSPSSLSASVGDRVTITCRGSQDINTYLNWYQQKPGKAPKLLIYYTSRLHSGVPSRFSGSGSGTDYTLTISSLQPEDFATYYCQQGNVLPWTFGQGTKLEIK
Measurement Units: pM
Receptor downregulation, (EC50) (pM): 125

Binder: S7AB-H8.45 (antibody, V domains shown) VH: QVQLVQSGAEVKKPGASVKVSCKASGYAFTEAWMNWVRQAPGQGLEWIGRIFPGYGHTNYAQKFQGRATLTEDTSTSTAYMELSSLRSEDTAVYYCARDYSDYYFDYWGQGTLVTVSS VL: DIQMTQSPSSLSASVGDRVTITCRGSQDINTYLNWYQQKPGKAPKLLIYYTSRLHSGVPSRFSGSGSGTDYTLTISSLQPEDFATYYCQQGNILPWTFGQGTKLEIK
Measurement Units: pM
Receptor downregulation, (EC50) (pM): 98.6

Binder: S7AB-H8.26 (antibody, V domains shown) VH: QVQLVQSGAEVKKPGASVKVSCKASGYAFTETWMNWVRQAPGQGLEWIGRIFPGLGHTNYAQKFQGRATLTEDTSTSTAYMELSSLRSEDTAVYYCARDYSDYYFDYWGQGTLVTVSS VL: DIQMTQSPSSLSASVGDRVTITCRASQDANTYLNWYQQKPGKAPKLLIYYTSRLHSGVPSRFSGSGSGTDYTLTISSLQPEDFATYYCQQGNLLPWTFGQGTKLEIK
Measurement Units: pM
Receptor downregulation, (EC50) (pM): 180

Binder: S7AB-H8.22 (antibody, V domains shown) VH: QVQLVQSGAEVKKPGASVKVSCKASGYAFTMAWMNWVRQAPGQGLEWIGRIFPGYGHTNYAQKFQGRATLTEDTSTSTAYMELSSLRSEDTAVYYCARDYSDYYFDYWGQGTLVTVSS VL: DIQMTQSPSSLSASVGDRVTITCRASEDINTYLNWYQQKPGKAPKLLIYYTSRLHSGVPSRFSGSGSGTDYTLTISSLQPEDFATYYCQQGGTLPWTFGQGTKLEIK
Measurement Units: pM
Receptor downregulation, (EC50) (pM): 109

Binder: S7AB-H8.17 (antibody, V domains shown) VH: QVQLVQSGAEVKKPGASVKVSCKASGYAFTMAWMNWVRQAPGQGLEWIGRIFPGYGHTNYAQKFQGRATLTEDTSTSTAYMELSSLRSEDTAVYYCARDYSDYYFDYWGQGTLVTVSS VL: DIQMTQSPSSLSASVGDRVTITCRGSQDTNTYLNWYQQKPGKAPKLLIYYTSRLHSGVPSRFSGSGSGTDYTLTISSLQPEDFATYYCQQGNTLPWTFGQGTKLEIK
Measurement Units: pM
Receptor downregulation, (EC50) (pM): 116

Binder: S7AB-H8.11 (antibody, V domains shown) VH: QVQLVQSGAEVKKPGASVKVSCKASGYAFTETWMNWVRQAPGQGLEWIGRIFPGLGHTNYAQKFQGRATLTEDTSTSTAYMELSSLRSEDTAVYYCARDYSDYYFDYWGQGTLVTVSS VL: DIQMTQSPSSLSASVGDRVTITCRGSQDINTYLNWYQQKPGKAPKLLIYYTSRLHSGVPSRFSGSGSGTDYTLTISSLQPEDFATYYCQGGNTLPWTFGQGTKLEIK
Measurement Units: pM
Receptor downregulation, (EC50) (pM): 7140

Binder: S7AB-H8.16 (antibody, V domains shown) VH: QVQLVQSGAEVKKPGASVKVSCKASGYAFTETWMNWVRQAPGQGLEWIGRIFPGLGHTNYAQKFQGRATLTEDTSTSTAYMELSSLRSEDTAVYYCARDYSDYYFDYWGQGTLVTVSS VL: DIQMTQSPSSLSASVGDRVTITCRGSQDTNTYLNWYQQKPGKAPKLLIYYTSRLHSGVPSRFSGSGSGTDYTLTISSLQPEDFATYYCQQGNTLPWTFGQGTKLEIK
Measurement Units: pM
Receptor downregulation, (EC50) (pM): 348

Binder: S7AB-H8.44 (antibody, V domains shown) VH: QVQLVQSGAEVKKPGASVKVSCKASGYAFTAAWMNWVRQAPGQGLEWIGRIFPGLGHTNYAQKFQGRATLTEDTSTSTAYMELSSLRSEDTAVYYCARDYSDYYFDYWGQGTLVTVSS VL: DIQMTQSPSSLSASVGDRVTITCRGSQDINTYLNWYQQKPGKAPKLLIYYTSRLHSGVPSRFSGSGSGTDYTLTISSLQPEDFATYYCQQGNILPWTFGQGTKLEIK
Measurement Units: pM
Receptor downregulation, (EC50) (pM): 61.2

Binder: S7AB-H8.39 (antibody, V domains shown) VH: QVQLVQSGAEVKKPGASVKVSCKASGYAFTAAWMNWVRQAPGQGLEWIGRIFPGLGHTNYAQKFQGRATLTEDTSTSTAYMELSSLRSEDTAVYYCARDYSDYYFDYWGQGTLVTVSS VL: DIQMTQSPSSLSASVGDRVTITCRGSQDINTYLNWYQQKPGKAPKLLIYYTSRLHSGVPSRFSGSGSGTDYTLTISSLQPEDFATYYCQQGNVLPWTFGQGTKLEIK
Measurement Units: pM
Receptor downregulation, (EC50) (pM): 56.8

Request: Reported Receptor downregulation, (EC50) (pM) for S7AB-H8.10.1 (antibody, V domains shown) VH: QVQLVQSGAEVKKPGASVKVSCKASGYAFTEAWMNWVRQAPGQRLEWIGRIFPGYGHTNYAQKFQGRATLTEDTSTSTAYMELSSLRSEDTAVYYCARDYSDYYFDYWGQGTLVTVSS VL: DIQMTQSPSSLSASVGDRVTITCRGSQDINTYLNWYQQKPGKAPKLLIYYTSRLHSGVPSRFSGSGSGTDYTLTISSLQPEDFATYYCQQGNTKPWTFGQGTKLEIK : what is it?
Response: 154
